Value source: ChEMBL document CHEMBL4033641

The entries below are paired with their reported inhibition.
# measured-on: DNMT3B-DNMT3L complex (Homo sapiens) (UniProt Q9UBC3+Q9UJW3)
# Sequence (Q9UJW3 whole entry, looked up, other chains not shown): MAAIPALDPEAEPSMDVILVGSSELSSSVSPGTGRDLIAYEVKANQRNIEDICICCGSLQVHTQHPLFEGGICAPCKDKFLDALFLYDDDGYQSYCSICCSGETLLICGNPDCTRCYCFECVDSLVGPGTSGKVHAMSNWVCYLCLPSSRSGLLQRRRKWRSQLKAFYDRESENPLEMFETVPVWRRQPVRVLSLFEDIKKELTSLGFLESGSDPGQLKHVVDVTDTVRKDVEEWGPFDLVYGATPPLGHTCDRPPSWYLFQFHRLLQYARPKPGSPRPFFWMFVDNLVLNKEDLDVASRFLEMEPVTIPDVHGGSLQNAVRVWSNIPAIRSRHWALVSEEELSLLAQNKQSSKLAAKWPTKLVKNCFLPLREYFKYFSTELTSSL
# protocol-notes: Inhibition of DNMT3B/3L (unknown origin) at 100 uM using biotinylated DNA oligonucleotides as substrate preincubated for 15 mins followed by substrate/[3H]-SAM addition measured after 4 hrs by liquid scintillation counting analysis
# Type: protein-complex assay

substance-smiles | inhibition, %
O=C(/C=C/c1ccc(CCNC(=O)c2cncc(F)c2)cc1)NO | 1.9
O=C(/C=C/c1ccc(CCNC(=O)c2ccc3c(c2)OCO3)cc1)NO | 9.89
O=C(/C=C/c1ccc(CCNC(=O)c2ccc3[nH]cnc3c2)cc1)NO | 30.8
COc1ccc(Cl)cc1C(=O)NCCc1cccc(/C=C/C(=O)NO)c1 | 3.09
COc1ccc(Cl)cc1C(=O)NCCc1ccc(/C=C/C(=O)NO)cc1 | 10.6

###

# System: Salmonella typhimurium
# protocol-notes: Genotoxicity in Salmonella typhimurium TA97 at 50 times IC50 by Ames test
# Assay type: toxicity
# measurement-conditions: salmonella enterica subsp. enterica serovar typhimurium

substance-smiles | Activity
O=C(/C=C/c1ccc(CCNC(=O)c2cncc(F)c2)cc1)NO | Non-Toxic
COc1ccc(Cl)cc1C(=O)NCCc1ccc(CCC(=O)NO)cc1 | Non-Toxic
O=C(/C=C/c1ccc(CCNC(=O)c2ccc3c(c2)OCO3)cc1)NO | Non-Toxic

###

# System: U-937
# protocol-notes: Antiproliferative activity against human U937 cells after 72 hrs by MTT assay
# Assay type: functional, cell-based
# measurement-conditions: U-937, 72 h

substance-smiles | measured-on | IC50, nM
O=C(/C=C/c1ccc(CCNC(=O)c2cc(C(F)(F)F)ccc2Cl)cc1)NO | U-937 | 1060
O=C(/C=C/c1ccc(CCNC(=O)c2ccc3c(c2)OCO3)cc1)NO | U-937 | 520
Cc1cc(Nc2ccc(NC(=O)c3ccc(Nc4ccnc5ccccc45)cc3)cc2)nc(N)n1 | U-937 | 1560
COc1ccc(Cl)cc1C(=O)NCCc1cccc(/C=C/C(=O)NO)c1 | U-937 | 1070
O=C(/C=C/c1ccc(CCNC(=O)c2cncc(F)c2)cc1)NO | U-937 | 4590
O=C(/C=C/c1ccc(CCNC(=O)c2c[nH]c3ncccc23)cc1)NO | U-937 | 17800
COc1ccc(Cl)cc1C(=O)NCCc1ccc(/C=C/C(=O)NO)cc1 | U-937 | 190
O=C(/C=C/c1ccc(CCNC(=O)c2ccc3c(c2)OCCO3)cc1)NO | U-937 | 2970
COc1ccc(Cl)cc1C(=O)NCCc1ccc(CCC(=O)NO)cc1 | U-937 | 3950
COc1cc(C(=O)NCCc2ccc(/C=C/C(=O)NO)cc2)ccc1O | U-937 | 10700
O=C(/C=C/c1ccc(CCNC(=O)c2ccc3ncccc3c2)cc1)NO | U-937 | 1260

###

These compounds were tested on Histone deacetylase 1 (Homo sapiens, UniProt Q13547); pIC50 is the recorded read-out.
Sequence (Q13547 whole entry): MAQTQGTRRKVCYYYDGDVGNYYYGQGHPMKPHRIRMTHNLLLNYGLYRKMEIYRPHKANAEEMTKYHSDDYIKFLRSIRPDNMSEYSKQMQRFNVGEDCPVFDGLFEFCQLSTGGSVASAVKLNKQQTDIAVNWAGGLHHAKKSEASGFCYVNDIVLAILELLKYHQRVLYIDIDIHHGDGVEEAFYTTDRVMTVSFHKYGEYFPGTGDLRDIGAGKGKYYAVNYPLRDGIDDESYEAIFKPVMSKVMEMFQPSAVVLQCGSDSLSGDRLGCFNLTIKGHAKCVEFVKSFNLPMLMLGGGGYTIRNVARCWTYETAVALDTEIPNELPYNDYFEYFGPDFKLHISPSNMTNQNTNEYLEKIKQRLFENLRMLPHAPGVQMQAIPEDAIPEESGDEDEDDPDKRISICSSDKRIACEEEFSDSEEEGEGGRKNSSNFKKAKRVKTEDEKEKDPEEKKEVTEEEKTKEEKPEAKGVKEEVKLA
pIC50: −log10 of the molar value.

substance-smiles | pIC50
O=C(/C=C/c1ccc(CCNC(=O)c2ccc3c(c2)OCO3)cc1)NO | 8.14
O=C(/C=C/c1ccc(CCNC(=O)c2ccc3c(c2)OCCO3)cc1)NO | 7.95
COc1ccc(Cl)cc1C(=O)NCCc1ccc(/C=C/C(=O)NO)cc1 | 7.72
COc1cc(C(=O)NCCc2ccc(/C=C/C(=O)NO)cc2)ccc1O | 8.09

###

# measured-on: Protein deacetylase HDAC6 (Homo sapiens)
# Sequence (Q9UBN7 whole entry): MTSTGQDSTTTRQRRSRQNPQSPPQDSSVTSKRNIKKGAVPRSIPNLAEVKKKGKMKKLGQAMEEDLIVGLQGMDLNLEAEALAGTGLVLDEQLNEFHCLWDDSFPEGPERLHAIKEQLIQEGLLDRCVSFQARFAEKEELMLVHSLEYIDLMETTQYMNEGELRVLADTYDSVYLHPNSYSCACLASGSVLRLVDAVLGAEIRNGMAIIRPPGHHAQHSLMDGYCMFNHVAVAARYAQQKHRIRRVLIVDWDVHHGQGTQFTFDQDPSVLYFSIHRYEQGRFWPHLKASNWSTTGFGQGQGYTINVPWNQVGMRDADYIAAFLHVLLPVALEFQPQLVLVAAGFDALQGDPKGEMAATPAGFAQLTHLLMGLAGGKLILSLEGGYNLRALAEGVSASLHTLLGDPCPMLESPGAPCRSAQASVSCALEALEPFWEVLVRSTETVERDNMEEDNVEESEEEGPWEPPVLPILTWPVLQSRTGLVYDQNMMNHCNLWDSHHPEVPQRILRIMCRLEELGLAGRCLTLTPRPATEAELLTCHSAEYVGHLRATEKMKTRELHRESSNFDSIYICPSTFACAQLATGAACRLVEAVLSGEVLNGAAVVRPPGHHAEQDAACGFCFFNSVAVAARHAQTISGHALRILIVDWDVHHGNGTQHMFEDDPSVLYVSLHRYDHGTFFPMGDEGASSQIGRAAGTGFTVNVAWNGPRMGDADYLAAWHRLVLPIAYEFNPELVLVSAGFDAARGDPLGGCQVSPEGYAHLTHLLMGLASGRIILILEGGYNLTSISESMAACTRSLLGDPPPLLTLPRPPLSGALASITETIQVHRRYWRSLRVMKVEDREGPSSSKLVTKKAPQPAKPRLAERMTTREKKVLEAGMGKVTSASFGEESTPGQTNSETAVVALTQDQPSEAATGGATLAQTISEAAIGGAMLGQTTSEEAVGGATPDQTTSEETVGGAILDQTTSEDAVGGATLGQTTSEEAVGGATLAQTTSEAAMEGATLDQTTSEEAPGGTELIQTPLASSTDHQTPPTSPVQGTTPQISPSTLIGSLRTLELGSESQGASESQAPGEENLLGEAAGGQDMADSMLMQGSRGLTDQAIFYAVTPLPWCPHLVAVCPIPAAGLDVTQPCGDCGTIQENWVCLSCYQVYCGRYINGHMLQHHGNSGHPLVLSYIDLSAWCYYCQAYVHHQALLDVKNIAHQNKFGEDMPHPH

substance-smiles | IC50
O=C(/C=C/c1ccc(CCNC(=O)c2c[nH]c3ncccc23)cc1)NO | 8.35 nM
COc1ccc(Cl)cc1C(=O)NCCc1ccc(CCC(=O)NO)cc1 | 41.4 nM
COc1ccc(Cl)cc1C(=O)NCCc1ccc(/C=C/C(=O)NO)cc1 | 12 nM
O=C(/C=C/c1ccc(CCNC(=O)c2ccc3c(c2)OCO3)cc1)NO | 7.1 nM

###

# measured-on: DNA (cytosine-5)-methyltransferase 1 (Homo sapiens)
# protocol-notes: Inhibition of DNMT1 (unknown origin) at 100 uM using poly(dI-dC).poly(dI-dC) as substrate preincubated for 15 mins followed by substrate/[3H]-SAM addition measured after 120 mins by liquid scintillation counting analysis

substance-smiles | inhibition
O=C(/C=C/c1ccc(CCNC(=O)c2cncc(F)c2)cc1)NO | 44 to 44.2%
O=C(/C=C/c1ccc(CCNC(=O)c2ccc3c(c2)OCCO3)cc1)NO | 47.9 to 48%
COc1ccc(Cl)cc1C(=O)NCCc1ccc(/C=C/C(=O)NO)cc1 | 39.8 to 40%
COc1ccc(Cl)cc1C(=O)NCCc1ccc(CCC(=O)O)cc1 | 34 to 34.1%
COc1ccc(Cl)cc1C(=O)NCCc1ccc(CCC(=O)NO)cc1 | 23.8 to 24%
COc1ccc(Cl)cc1C(=O)NCCc1cccc(/C=C/C(=O)NO)c1 | 36 to 36.4%
O=C(/C=C/c1ccc(CCNC(=O)c2ccc3ncccc3c2)cc1)NO | 22.9%
COc1cc(C(=O)NCCc2ccc(/C=C/C(=O)NO)cc2)ccc1O | 27.9%
O=C(/C=C/c1ccc(CCNC(=O)c2cc(C(F)(F)F)ccc2Cl)cc1)NO | 69.9 to 70%
O=C(/C=C/c1ccc(CCNC(=O)c2ccc3c(c2)OCO3)cc1)NO | 18.4%
O=C(/C=C/c1ccc(CCNC(=O)c2c[nH]c3ncccc23)cc1)NO | 28.1%
O=C(/C=C/c1ccc(CCNC(=O)c2ccc3[nH]cnc3c2)cc1)NO | 47 to 47.4%

###

# measured-on: DNMT3A2/3L complex (Homo sapiens) (UniProt Q9Y6K1+Q9UJW3)
# Sequence (Q9Y6K1 whole entry, looked up, one chain of several): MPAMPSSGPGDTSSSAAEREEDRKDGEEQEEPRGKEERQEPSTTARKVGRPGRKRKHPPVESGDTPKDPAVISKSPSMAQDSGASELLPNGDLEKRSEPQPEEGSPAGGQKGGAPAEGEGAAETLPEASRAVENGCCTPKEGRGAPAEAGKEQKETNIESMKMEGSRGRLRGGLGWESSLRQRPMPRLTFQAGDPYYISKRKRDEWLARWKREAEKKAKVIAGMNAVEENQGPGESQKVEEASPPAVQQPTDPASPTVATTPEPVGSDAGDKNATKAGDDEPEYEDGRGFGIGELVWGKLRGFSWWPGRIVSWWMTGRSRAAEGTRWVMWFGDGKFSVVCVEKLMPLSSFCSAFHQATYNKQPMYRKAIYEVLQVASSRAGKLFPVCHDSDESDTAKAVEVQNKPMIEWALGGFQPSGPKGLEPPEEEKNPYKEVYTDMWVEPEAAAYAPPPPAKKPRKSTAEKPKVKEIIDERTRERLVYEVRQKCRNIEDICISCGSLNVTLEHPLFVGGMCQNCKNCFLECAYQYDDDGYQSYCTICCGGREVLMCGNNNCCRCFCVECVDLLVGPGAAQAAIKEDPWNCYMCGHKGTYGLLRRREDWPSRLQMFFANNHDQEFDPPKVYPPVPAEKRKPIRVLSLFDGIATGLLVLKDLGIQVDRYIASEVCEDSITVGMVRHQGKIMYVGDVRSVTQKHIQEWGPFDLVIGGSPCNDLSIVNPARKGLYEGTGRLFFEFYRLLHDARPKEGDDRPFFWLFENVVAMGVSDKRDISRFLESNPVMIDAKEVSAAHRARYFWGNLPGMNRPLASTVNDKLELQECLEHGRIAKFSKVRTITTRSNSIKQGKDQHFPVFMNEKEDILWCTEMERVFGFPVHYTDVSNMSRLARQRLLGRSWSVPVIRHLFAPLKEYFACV
# protocol-notes: Inhibition of DNMT3A/3L (unknown origin) at 100 uM using biotinylated DNA oligonucleotides as substrate preincubated for 15 mins followed by substrate/[3H]-SAM addition measured after 4 hrs by liquid scintillation counting analysis
# Format: protein-complex assay
Here the recorded inhibition is given for each entry.

substance-smiles | inhibition
O=C(/C=C/c1ccc(CCNC(=O)c2cncc(F)c2)cc1)NO | 0.9%
O=C(/C=C/c1ccc(CCNC(=O)c2c[nH]c3ncccc23)cc1)NO | 21%
O=C(/C=C/c1ccc(CCNC(=O)c2ccc3[nH]cnc3c2)cc1)NO | 41 to 41.2%
COc1ccc(Cl)cc1C(=O)NCCc1cccc(/C=C/C(=O)NO)c1 | 1.97%
O=C(/C=C/c1ccc(CCNC(=O)c2ccc3c(c2)OCCO3)cc1)NO | -0.26%
COc1ccc(Cl)cc1C(=O)NCCc1ccc(CCC(=O)NO)cc1 | 4.64 to 5%
COc1ccc(Cl)cc1C(=O)NCCc1ccc(/C=C/C(=O)NO)cc1 | 3.98%
O=C(/C=C/c1ccc(CCNC(=O)c2ccc3ncccc3c2)cc1)NO | 19.1%
COc1ccc(Cl)cc1C(=O)NCCc1ccc(CCC(=O)O)cc1 | 42%
O=C(/C=C/c1ccc(CCNC(=O)c2ccc3c(c2)OCO3)cc1)NO | -1.03%
O=C(/C=C/c1ccc(CCNC(=O)c2cc(C(F)(F)F)ccc2Cl)cc1)NO | 23 to 23.4%
COc1cc(C(=O)NCCc2ccc(/C=C/C(=O)NO)cc2)ccc1O | 11.2%
